Assay: Solubility of the compound at pH 7.4
Assay type: physicochemical
Conditions: buffer
Experimental Readout: solubility (µg/mL)
Lab book: enter the figure in µg/mL, no units written.

Incoming: Could you please provide reported solubility for "Nc1nc(CC(=O)Nc2ccc(C[C@@H]3CC[C@H]([C@H](O)c4ccccc4)N3)cc2)cs1" ? Thanks!
Outgoing: 1300

###

Experiment: Metabolic stability in rhesus monkey liver microsomes assessed as compound remaining after 45 mins
Assay type: ADME, Macaca mulatta, Microsome
Details: read-out: Stability
Experimental Readout: remaining at 0.75 h (%)
Lab book: enter the figure in %, no units written.

Incoming: Could you please provide reported remaining at 0.75 h for "Nc1nc(CC(=O)Nc2ccc(C[C@@H]3CC[C@H]([C@H](O)c4ccccc4)N3)cc2)cs1" ? Thanks!
Outgoing: 77
